target: Vasopressin V1a receptor (Homo sapiens, UniProt P37288); assay: Agonist activity at human V1a receptor expressed in CHO cells assessed as calcium mobilization measured after 30 mins by Fluo-4-AM dye based FLIPR assay
Sequence (P37288 whole entry): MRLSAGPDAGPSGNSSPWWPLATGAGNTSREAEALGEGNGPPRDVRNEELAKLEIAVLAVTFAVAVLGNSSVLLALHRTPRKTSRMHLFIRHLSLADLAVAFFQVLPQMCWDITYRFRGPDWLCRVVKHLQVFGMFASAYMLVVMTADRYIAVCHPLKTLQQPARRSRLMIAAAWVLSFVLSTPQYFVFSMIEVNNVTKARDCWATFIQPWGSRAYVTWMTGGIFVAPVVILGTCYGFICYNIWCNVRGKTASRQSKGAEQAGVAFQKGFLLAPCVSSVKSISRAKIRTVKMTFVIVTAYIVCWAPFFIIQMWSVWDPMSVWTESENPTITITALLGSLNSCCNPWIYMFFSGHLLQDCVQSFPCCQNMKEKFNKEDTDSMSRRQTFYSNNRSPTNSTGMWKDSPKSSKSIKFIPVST
pEC50: −log10 of the molar value. Bridge positions count the residues as written; N and C are the ends. Square brackets hold non-standard residues; d marks the D form. Peptide text beside a SMILES is read from it. Mpa = O=C(O)CCS
quantity_measured: pEC50

compound	target_entity	pEC50
CC(C)C[C@H](NC(=O)[C@@H]1CCCN1C(=O)[C@@H]1CSSCCC(=O)N[C@@H](Cc2ccc(O)cc2)C(=O)N[C@@H](CCC(=O)O)C(=O)N[C@@H](CCC(N)=O)C(=O)N[C@@H](CC(N)=O)C(=O)N1)C(=O)NCC(N)=O ([Mpa]YEQNCPLG-NH2; disulfide 1-6)	Vasopressin V1a receptor (Homo sapiens, UniProt P37288)	< 7.00

Please examine the following record next.
Give Vasopressin V1a receptor (Homo sapiens, UniProt P37288) pEC50 for CC[C@H](C)[C@@H]1NC(=O)[C@H](Cc2ccc(O)cc2)NC(=O)CCSSC[C@@H](C(=O)N2CCC[C@H]2C(=O)N[C@@H](CC(C)C)C(=O)NCC(N)=O)NC(=O)[C@H](CC(N)=O)NC(=O)[C@H](CC(C)C)NC1=O ([Mpa]YILNCPLG-NH2; disulfide 1-6) < 7.00

* * *

organism: Homo sapiens; assay: Selectivity ratio of EC50 for human V1a receptor to EC50 for human OTR
Bridge positions count the residues as written; N and C are the ends. Square brackets hold non-standard residues; d marks the D form. Peptide text beside a SMILES is read from it. Mpa = O=C(O)CCS
Property: Ratio EC50; scope: individual molecules

Record excerpt, results attached:
molecule	Ratio EC50
CC(C)C[C@H](NC(=O)[C@@H]1CCCN1C(=O)[C@@H]1CSSCCC(=O)N[C@@H](Cc2ccc(O)cc2)C(=O)N[C@@H](C)C(=O)N[C@@H](CCC(N)=O)C(=O)N[C@@H](CC(N)=O)C(=O)N1)C(=O)NCC(N)=O ([Mpa]YAQNCPLG-NH2; disulfide 1-6)	> 10
CCCCCC[C@H](NC(=O)[C@@H]1CCCN1C(=O)[C@@H]1CSSCCC(=O)N[C@@H](Cc2ccc(O)cc2)C(=O)N[C@@H]([C@@H](C)CC)C(=O)N[C@@H](CCC(N)=O)C(=O)N[C@@H](CC(N)=O)C(=O)N1)C(=O)NCC(N)=O	120
CC[C@H](C)[C@@H]1NC(=O)[C@H](Cc2ccc(O)cc2)NC(=O)CCSSC[C@@H](C(=O)N2CCC[C@H]2C(=O)N[C@@H](CO)C(=O)NCC(N)=O)NC(=O)[C@H](CC(N)=O)NC(=O)[C@H](CCC(N)=O)NC1=O ([Mpa]YIQNCPSG-NH2; disulfide 1-6)	> 1000

Okay, next one:
Name the reported Ratio EC50 value associated with the molecule CC[C@H](C)[C@@H]1NC(=O)[C@H](Cc2ccc(O)cc2)NC(=O)CCSSC[C@@H](C(=O)N2CCC[C@H]2C(=O)N[C@@H](CC(C)C)C(=O)NCC(N)=O)NC(=O)[C@H](CC(N)=O)NC(=O)[C@H](CC(C)C)NC1=O ([Mpa]YILNCPLG-NH2; disulfide 1-6) > 100

* * *

species: Homo sapiens; experiment: Selectivity ratio of EC50 for human V1a receptor to EC50 for human OTR
Numbered stars: 1 amine (or outer) side, 2 acyl side, 3 side chain; on linkers, the order of the positions; unused ones are H or OH. Bridge positions count the residues as written; N and C are the ends. Square brackets hold non-standard residues; d marks the D form. Peptide text beside a SMILES is read from it. tBuAla = CC(C)(C)C[C@H](N)C(=O)O; Suc = O=C(CCC(=O)[*:2])[*:1]; Dap = NC[C@H](N)C(=O)O; Mpa = O=C(O)CCS
quantity_measured: Ratio EC50

Example cases with answers are listed next.
compound	Ratio EC50
CC[C@H](C)[C@@H]1NC(=O)[C@H](Cc2ccc(O)cc2)NC(=O)CCSSC[C@@H](C(=O)N2C[C@@H](O)C[C@H]2C(=O)N[C@@H](CC(C)C)C(=O)NCC(N)=O)NC(=O)[C@H](CC(N)=O)NC(=O)[C@H](CCC(N)=O)NC1=O	> 10000
CC[C@H](C)[C@@H]1NC(=O)[C@H](Cc2ccc(O)cc2)NC(=O)CCC(=O)NC[C@@H](C(=O)N2CCC[C@H]2C(=O)N[C@@H](CC(C)C)C(=O)NCC(N)=O)NC(=O)[C@H](CC(N)=O)NC(=O)[C@H](CCC(N)=O)NC1=O (YIQN[Dap]PLG-NH2; linker N-5 via Suc)	> 100
CC[C@H](C)[C@@H]1NC(=O)[C@H](Cc2ccc(O)cc2)NC(=O)CCSSC[C@@H](C(=O)N2CCC[C@H]2C(=O)N[C@@H](C)C(=O)NCC(N)=O)NC(=O)[C@H](CC(N)=O)NC(=O)[C@H](CCC(N)=O)NC1=O ([Mpa]YIQNCPAG-NH2; disulfide 1-6)	200
CC[C@H](C)[C@@H]1NC(=O)[C@H](Cc2ccc(O)cc2)NC(=O)CCSSC[C@@H](C(=O)N2CCC[C@H]2C(=O)N[C@@H](CC(C)C)C(=O)NCC(N)=O)NC(=O)[C@H](C)NC(=O)[C@H](CCC(N)=O)NC1=O ([Mpa]YIQACPLG-NH2; disulfide 1-6)	> 5
CC[C@H](C)[C@@H]1NC(=O)[C@H](Cc2ccc(O)cc2)NC(=O)CCSSC[C@@H](C(=O)N2CCC[C@H]2C(=O)N[C@@H](CC(C)C)C(=O)NCC(N)=O)NC(=O)[C@H](CC(N)=O)NC(=O)[C@H](CCCNC(=N)N)NC1=O ([Mpa]YIRNCPLG-NH2; disulfide 1-6)	> 10

What does the data say about its Ratio EC50? Entry: "CC[C@H](C)[C@@H]1NC(=O)[C@H](Cc2ccc(O)cc2)NC(=O)CCSSC[C@@H](C(=O)N2CCC[C@H]2C(=O)N[C@@H](CC(C)(C)C)C(=O)NCC(N)=O)NC(=O)[C@H](CC(N)=O)NC(=O)[C@H](CCC(N)=O)NC1=O" > 10000

Tell me the measured Ratio EC50 of CC[C@H](C)[C@@H]1NC(=O)[C@H](Cc2ccc(O)cc2)NC(=O)CCSSC[C@@H](C(=O)N2CCC[C@H]2C(=O)N[C@@H](CC(C)C)C(=O)NCC(N)=O)NC(=O)[C@H](CC(N)=O)NC(=O)[C@H](CO)NC1=O ([Mpa]YISNCPLG-NH2; disulfide 1-6) , please. > 1000

What Ratio EC50 value was documented for this compound, CC[C@H](C)[C@@H]1NC(=O)[C@H](Cc2ccc(O)cc2)NC(=O)CCC(=O)NC[C@@H](C(=O)N2CCC[C@H]2C(=O)N[C@@H](CC(C)(C)C)C(=O)NCC(N)=O)NC(=O)[C@H](CC(N)=O)NC(=O)[C@H](CCC(N)=O)NC1=O (YIQN[Dap]P[tBuAla]G-NH2; linker N-5 via Suc) ? > 100

* * *

organism: Homo sapiens; experiment: Selectivity ratio of EC50 for human V1b receptor to EC50 for human OTR
Numbered stars: 1 amine (or outer) side, 2 acyl side, 3 side chain; on linkers, the order of the positions; unused ones are H or OH. Bridge positions count the residues as written; N and C are the ends. Square brackets hold non-standard residues; d marks the D form. Peptide text beside a SMILES is read from it. Hyp = O=C(O)[C@@H]1C[C@@H](O)CN1; X1 = O=C(CCC[*:2])[*:1]; Mpa = O=C(O)CCS
Each entry below carries its reported Ratio EC50.

compound	Ratio EC50
CC[C@H](C)[C@@H]1NC(=O)[C@H](Cc2ccc(O)cc2)NC(=O)CCCSC[C@@H](C(=O)N2C[C@H](O)C[C@H]2C(=O)N[C@@H](CC(C)C)C(=O)NCC(N)=O)NC(=O)[C@H](CC(N)=O)NC(=O)[C@H](CCC(N)=O)NC1=O (YIQNC[Hyp]LG-NH2; linker N-5 via X1)	> 10000

# query: Ratio EC50 of entry CC(C)C[C@H](NC(=O)[C@@H]1CCCN1C(=O)[C@@H]1CSSCCC(=O)N[C@@H](Cc2ccc(O)cc2)C(=O)N[C@@H](CO)C(=O)N[C@@H](CCC(N)=O)C(=O)N[C@@H](CC(N)=O)C(=O)N1)C(=O)NCC(N)=O ([Mpa]YSQNCPLG-NH2; disulfide 1-6) > 2

* * *

biological target: Oxytocin receptor (Homo sapiens); assay: Agonist activity at human OTR expressed in CHO cells assessed as calcium mobilization measured after 30 mins by Fluo-4-AM dye based FLIPR assay
Sequence (P30559 whole entry): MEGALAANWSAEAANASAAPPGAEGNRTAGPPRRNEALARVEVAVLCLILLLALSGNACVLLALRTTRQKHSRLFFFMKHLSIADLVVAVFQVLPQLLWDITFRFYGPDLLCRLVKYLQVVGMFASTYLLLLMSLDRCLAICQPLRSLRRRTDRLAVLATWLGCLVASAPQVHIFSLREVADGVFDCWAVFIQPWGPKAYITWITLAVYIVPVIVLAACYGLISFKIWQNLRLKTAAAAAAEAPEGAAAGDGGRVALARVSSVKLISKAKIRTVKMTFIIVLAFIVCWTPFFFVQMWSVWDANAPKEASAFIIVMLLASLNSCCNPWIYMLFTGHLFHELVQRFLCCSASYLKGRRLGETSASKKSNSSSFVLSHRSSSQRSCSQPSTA
Numbered stars: 1 amine (or outer) side, 2 acyl side, 3 side chain; on linkers, the order of the positions; unused ones are H or OH. Bridge positions count the residues as written; N and C are the ends. Square brackets hold non-standard residues; d marks the D form. Peptide text beside a SMILES is read from it. Suc = O=C(CCC(=O)[*:2])[*:1]; X1 = O=C(CCC[*:2])[*:1]; Dap = NC[C@H](N)C(=O)O; Mpa = O=C(O)CCS
EC50 for assorted compounds

The following compounds have reported results that may help.
compound	EC50
CCCC[C@H](NC(=O)[C@@H]1CCCN1C(=O)[C@@H]1CSSCCC(=O)N[C@@H](Cc2ccc(O)cc2)C(=O)N[C@@H]([C@@H](C)CC)C(=O)N[C@@H](CCC(N)=O)C(=O)N[C@@H](CC(N)=O)C(=O)N1)C(=O)NCC(N)=O	0.015 nM
CC[C@H](C)[C@@H]1NC(=O)[C@H](Cc2ccc(O)cc2)NC(=O)CCC(=O)NC[C@@H](C(=O)N2CCC[C@H]2C(=O)N[C@@H](CC(C)C)C(=O)NCC(N)=O)NC(=O)[C@H](CC(N)=O)NC(=O)[C@H](CCC(N)=O)NC1=O (YIQN[Dap]PLG-NH2; linker N-5 via Suc)	0.12 nM
CC[C@H](C)[C@@H]1NC(=O)[C@H](Cc2ccc(O)cc2)NC(=O)CCSSC[C@@H](C(=O)N2CCC[C@H]2C(=O)N[C@@H](CC(C)C)C(=O)NCC(N)=O)NC(=O)[C@H](C)NC(=O)[C@H](CCC(N)=O)NC1=O ([Mpa]YIQACPLG-NH2; disulfide 1-6)	17 nM
CCCCCCC(NC(=O)[C@@H]1CCCN1C(=O)[C@@H]1CSSCCC(=O)N[C@@H](Cc2ccc(O)cc2)C(=O)N[C@@H]([C@@H](C)CC)C(=O)N[C@@H](CCC(N)=O)C(=O)N[C@@H](CC(N)=O)C(=O)N1)C(=O)NCC(N)=O (stereo partly specified)	0.027 nM
CC[C@H](C)[C@@H]1NC(=O)[C@H](Cc2ccc(O)cc2)NC(=O)CCSSC[C@@H](C(=O)N[C@@H](CCCNC(=N)N)C(=O)N[C@@H](CC(C)C)C(=O)NCC(N)=O)NC(=O)[C@H](CC(N)=O)NC(=O)[C@H](CCC(N)=O)NC1=O ([Mpa]YIQNCRLG-NH2; disulfide 1-6)	1.5 nM
CC[C@H](C)[C@@H]1NC(=O)[C@H](Cc2ccc(O)cc2)NC(=O)CCSSC[C@@H](C(=O)N2CCC[C@H]2C(=O)N[C@H](C(=O)NCC(N)=O)C(C)C)NC(=O)[C@H](CC(N)=O)NC(=O)[C@H](CCC(N)=O)NC1=O ([Mpa]YIQNCPVG-NH2; disulfide 1-6)	0.014 nM
CC[C@H](C)[C@@H]1NC(=O)[C@H](C)NC(=O)CCSSC[C@@H](C(=O)N2CCC[C@H]2C(=O)N[C@@H](CC(C)C)C(=O)NCC(N)=O)NC(=O)[C@H](CC(N)=O)NC(=O)[C@H](CCC(N)=O)NC1=O ([Mpa]AIQNCPLG-NH2; disulfide 1-6)	> 100 nM
CC[C@H](C)[C@@H]1NC(=O)[C@H](Cc2ccc(O)cc2)NC(=O)CCCSC[C@@H](C(=O)N2CCC[C@H]2C(=O)N[C@@H](CC(C)C)C(=O)NCC(N)=O)NC(=O)[C@H](CC(N)=O)NC(=O)[C@H](CCC(N)=O)NC1=O (YIQNCPLG-NH2; linker N-5 via X1)	0.0067 nM
CC[C@H](C)[C@@H]1NC(=O)[C@H](Cc2ccc(O)cc2)NC(=O)CCSSC[C@@H](C(=O)N2CCC[C@H]2C(=O)N[C@@H](CC(C)C)C(=O)N(C)CC(N)=O)NC(=O)[C@H](CC(N)=O)NC(=O)[C@H](CCC(N)=O)NC1=O	0.12 nM
S	0.12 nM

With those in mind, consider the next compound.
Field request: EC50 | item: CC[C@H](C)[C@@H]1NC(=O)[C@H](CCC(=O)O)NC(=O)CCSSC[C@@H](C(=O)N2CCC[C@H]2C(=O)N[C@@H](CC(C)C)C(=O)NCC(N)=O)NC(=O)[C@H](CC(N)=O)NC(=O)[C@H](CCC(N)=O)NC1=O ([Mpa]EIQNCPLG-NH2; disulfide 1-6) > 100 nM
